# normalized growth values compiled below
assay: chemical genetic growth profiling, strain panel (AID 1159580);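 note: tested at 20 µM; growth read once vehicle control cultures reached saturation at 30 °C; 1 = growth at the plate median or of vehicle wells; lower values mean less growth of the strain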; details: S. cerevisiae deletion strains, growth OD, locus YKL190W, strain CNB1, stronger effect = lower value
Screen size: about 5,500 compounds; about 2,000 (36%) were called active. Another 18% or so got no clear call; they are omitted. Some of the results follow.
Answer field: number only, no words.

O=C(NC1Cc2ccccc2C1)c1cncc(Br)c1
0.99
N[C@H](C(=O)O)[C@@H]1CC(Cl)=NO1
0.446
CC(C)CC(N(C)C)C1(c2ccc(Cl)cc2)CCC1 (configuration not stated)
0.997
C=C/C(C)=C\CC1C(C)(O)CCC2C(C)(C)CCCC21C (configuration not stated)
0.0889
COc1ccc2c(c1)c(CC(=O)OCC(=O)O)c(C)n2C(=O)c1ccc(Cl)cc1
1.01
COc1ccc(Oc2cc(C)nc3ccccc23)cc1
0.906
CO[C@@]12[C@@H]3NC3CN1C1=C(C(=O)C(N)=C(C)C1=O)[C@@H]2COC(N)=O (some centres not stated)
1
O=C1C(O)=C(O)C(=O)C(O)=C1O
0.98
CC(C)(C#N)O[C@@H]1O[C@H](CO)[C@@H](O)[C@H](O)[C@H]1O
1.02
COc1ccc2c3c([nH]c2c1)C(C)=NCC3
1.01

// query Let me know recorded normalized growth for CCC(C)C(=O)O[C@H]1[C@H](O)C2C(CN3CC(C)CCC3[C@@]2(C)O)C2C[C@]34O[C@]5(O)C(OC(=O)C(C)(O)CC)CC[C@@]3(C)C5C(OC(C)=O)[C@@H](OC(C)=O)C4[C@@]21O (some centres not stated) , thanks.
// result 1

// query Consider the molecule `O=C(CSCc1c(F)cccc1Cl)Nc1ccc(F)c(Cl)c1` . State its measured normalized growth.
// result 0.802

Attribution: PubChem BioAssay AID1159580
